- Tested on: U-373 MG
- methodSummary: Cancer cell growth inhibition, 72 h treatment
- Assay type: cell-based
- recordedConditions: Homo sapiens, U373 MG, Brain U-373 MG, Hexosaminidase assay (*)
pEC50: −log10 of the molar value.
measureName: pEC50

1 = CC(C)C[C@H](NC(=O)[C@@H]1N[C@H](c2ccccc2)[C@@H]([N+](=O)[O-])[C@@H]1c1cccs1)B(O)O
2 = CC(C)C[C@H](NC(=O)[C@@H]1N[C@H](c2ccccc2)[C@@H]([N+](=O)[O-])[C@@H]1c1ccco1)B(O)O
3 = CC(C)C[C@H](NC(=O)[C@@H]1N[C@H](c2ccccc2)[C@@H]([N+](=O)[O-])[C@@H]1c1ccc(F)cc1)B(O)O
**Query** Order the above compounds by increasing pEC50. List each label, following the requested order.
**Result** 3, 1, 2
